test system: P. aeruginosa clinical isolate; test: MIC determination, broth microdilution; type: cell-based; conditions: Pseudomonas aeruginosa, 37° C., 18-24 hours, read-out: Strain 9 MIC
MEASURE NAME: MIC (µg/mL)

CC1(C)[C@H](NC(=O)/C(=N\O[C@@H](COc2ccc(C(=N)N[C@@H]3CCCNC3)cc2)C(=O)O)c2nsc(N)n2)C(=O)N1OS(=O)(=O)O [Example 4] ... 2

P = CC1(C)[C@H](NC(=O)/C(=N\O[C@@H](COc2ccc(C(=N)NC3CNC3)cc2)C(=O)O)c2nsc(N)n2)C(=O)N1OS(=O)(=O)O [Example 7]
Q = CC1(C)[C@H](NC(=O)/C(=N\O[C@@H](COc2ccc(C(=N)N[C@@H]3CCCNC3)cc2)C(=O)O)c2nc(N)sc2Cl)C(=O)N1OS(=O)(=O)O [Example 3]
R = CC1(C)[C@H](NC(=O)/C(=N\O[C@@H](COc2ccc(C(=N)N[C@@H]3CCNC3)cc2)C(=O)O)c2nc(N)sc2Cl)C(=O)N1OS(=O)(=O)O [Example 10]
Ascending sort, MIC. Reply: labels, ordered per the request. P, R, Q
(P: 0.5 µg/mL, R: 2 µg/mL, Q: 4 µg/mL)

###

tested on: K. pneumoniae 700603; assay: MIC determination, broth microdilution; type: cell-based; settings: Klebsiella pneumoniae, 37° C., 18-24 hours, read-out: Strain 4 MIC
MEASURE NAME: MIC (µg/mL)

Examples with answers:
CC1(C)[C@H](NC(=O)/C(=N\O[C@@H](COc2ccc(C(=N)N[C@@H]3CCCNC3)cc2)C(=O)O)c2nsc(N)n2)C(=O)N1OS(=O)(=O)O ... 64
CC1(C)[C@H](NC(=O)/C(=N\O[C@@H](COc2ccc(C(=N)NC3CCNCC3)cc2)C(=O)O)c2nsc(N)n2)C(=O)N1OS(=O)(=O)O ... 64
CC1(C)[C@H](NC(=O)/C(=N\O[C@@H](COc2ccc(C(=N)NC3CNC3)cc2)C(=O)O)c2nc(N)sc2Cl)C(=O)N1OS(=O)(=O)O ... 8

1 = CC1(C)[C@H](NC(=O)/C(=N\O[C@@H](COc2ccc(C(=N)NC3CCNCC3)cc2)C(=O)O)c2nc(N)sc2Cl)C(=O)N1OS(=O)(=O)O
2 = CC1(C)[C@H](NC(=O)/C(=N\O[C@@H](COc2ccc(C(=N)N[C@H]3CCCNC3)cc2)C(=O)O)c2nc(N)sc2Cl)C(=O)N1OS(=O)(=O)O
3 = CC1(C)[C@H](NC(=O)/C(=N\O[C@@H](COc2ccc(C(=N)N[C@@H]3CCNC3)cc2)C(=O)O)c2nc(N)sc2Cl)C(=O)N1OS(=O)(=O)O
Endpoint returns the given molecules ordered by ascending MIC. In your reply, arrange the labels in the requested order. 3, 1, 2

###

system: E. cloacae 700323; test: MIC determination, broth microdilution; assay type: cell-based; settings: Enterobacter cloacae, 37° C., 18-24 hours, read-out: Strain 6 MIC
MEASURE NAME: MIC (mg/L)

CC1(C)[C@H](NC(=O)/C(=N\O[C@@H](COc2ccc(C(=N)NC3CCNCC3)cc2)C(=O)O)c2nc(N)sc2Cl)C(=O)N1OS(=O)(=O)O ... 8

1 = CC1(C)[C@H](NC(=O)/C(=N\O[C@@H](COc2ccc(C(=N)N[C@@H]3CCCNC3)cc2)C(=O)O)c2nc(N)sc2Cl)C(=O)N1OS(=O)(=O)O
2 = CC1(C)[C@H](NC(=O)/C(=N\O[C@@H](COc2ccc(C(=N)NC3CNC3)cc2)C(=O)O)c2nsc(N)n2)C(=O)N1OS(=O)(=O)O
Returns: the label, 1 or 2 , whose recorded MIC is the lower number. Field: selected label. Fill in the label of the entry you choose. 1
